assay: AUC in monkey at 2.5 mg/kg, po; type: ADME, organism-based, Macaca mulatta; parameters: dose 2.5 mg/kg, route oral; details: rhesus monkey, plasma
Assay endpoint: AUC (µM·h)
Response body: numeric value in µM·h, unit text excluded.

The recorded AUC for entry CC(C)NC(C)(C)c1nc2c(C(N)=O)cccc2[nH]1 equals 0.65

---

test: Volume of distribution in rat at 5 mg/kg, iv and 5 mg/kg, po; type: ADME, organism-based; settings: in vivo
Assay endpoint: Vd (L/kg)
State the answer as a number, implicitly in L/kg.

// sample CC(C)NC(C)(C)c1nc2c(C(N)=O)cccc2[nH]1 , its Vd was 3.7

---

assay: Clearance in dog at 2.5 mg/kg, iv and 2.5 mg/kg, po; type: ADME, organism-based, Canis lupus familiaris; conditions: in vivo
Assay endpoint: clearance (mL/min/kg)
Write the number in mL/min/kg without appending the unit.

clearance reading for CC(C)NC(C)(C)c1nc2c(C(N)=O)cccc2[nH]1 : 14.2

---

assay: Half life in mouse at 5 mg/kg, iv; type: ADME, organism-based; set-up: dose 5 mg/kg, route intravenous; settings: in vivo
Assay endpoint: half-life (min)
Write the answer as a number in min, unit excluded.

Below: 3 compounds and their reported half-life.
{"Mol": "CC(C)(c1nc2c(C(N)=O)cccc2[nH]1)N1CCCC1", "half-life / min": 24}
{"Mol": "CC(C)(NCC1CC1)c1nc2c(C(N)=O)cccc2[nH]1", "half-life / min": 48}
{"Mol": "CC(C)NC(C)(C)c1nc2c(C(N)=O)cccc2[nH]1", "half-life / min": 36}

As a next step, examine the compound that follows.
Short answer for CNC(C)(C)c1nc2cccc(C(N)=O)c2[nH]1 : half-life was 36

---

experiment: Volume of distribution in mouse at 5 mg/kg, iv and 10 mg/kg, po; assay type: ADME, organism-based; conditions: in vivo
Item-by-item account of Vd
Report as: number unit

Use these answered entries as a reference point.
{"Mol": "CNC(C)(C)c1nc2cccc(C(N)=O)c2[nH]1", "Test value": "3.5 L/kg"}
{"Mol": "CC(C)(c1nc2c(C(N)=O)cccc2[nH]1)N1CCCC1", "Test value": "1.8 L/kg"}
{"Mol": "CC(C)NC(C)(C)c1nc2c(C(N)=O)cccc2[nH]1", "Test value": "2.1 L/kg"}

Here is the next item to consider.
Data point: CC(C)(NCC1CC1)c1nc2c(C(N)=O)cccc2[nH]1 ; Vd = 13.3 L/kg

---

assay: Volume of distribution in monkey at 2.5 mg/kg, iv and 2.5 mg/kg, po; type: ADME, organism-based, Macaca mulatta; conditions: rhesus monkey, in vivo
Assay endpoint: Vd
Give the number first and the unit second.

Vd reading for CC(C)NC(C)(C)c1nc2c(C(N)=O)cccc2[nH]1 : 1.1 L/kg

---

experiment: Half life in monkey at 2.5 mg/kg, iv and 2.5 mg/kg, po; type: ADME, organism-based, Macaca mulatta; conditions: rhesus monkey, in vivo
Assay endpoint: half-life (min)
Value expressed in min; do not type the unit.

half-life measured on CC(C)NC(C)(C)c1nc2c(C(N)=O)cccc2[nH]1 = 36

---

assay: AUC in mouse at 10 mg/kg, po; format: ADME, organism-based; set-up: dose 10 mg/kg, route oral; conditions: plasma
Assay endpoint: AUC (µM·h)
Note: unit µM·h is implicit; provide only the numeric part.

// sample CC(C)(c1nc2c(C(N)=O)cccc2[nH]1)N1CCCC1 , its AUC was 6.33

What the record says about CC(C)NC(C)(C)c1nc2c(C(N)=O)cccc2[nH]1 : AUC is 5.78

// recorded AUC for CC(C)(NCC1CC1)c1nc2c(C(N)=O)cccc2[nH]1 : 3.38

Short answer for CNC(C)(C)c1nc2cccc(C(N)=O)c2[nH]1 : AUC was 8.64

---

assay: Oral bioavailability in dog at 2.5 mg/kg; assay type: ADME, organism-based, Canis lupus familiaris; conditions: in vivo
Assay endpoint: bioavailability

The value of bioavailability measured for the molecule CC(C)NC(C)(C)c1nc2c(C(N)=O)cccc2[nH]1 turned out to be 70.5%

---

List of bioavailability values.
assay: Oral bioavailability in mouse at 10 mg/kg; assay type: ADME, organism-based; conditions: in vivo
The answer is to be given in %; state only the numeric part.

{"Mol": "CC(C)NC(C)(C)c1nc2c(C(N)=O)cccc2[nH]1", "Readout unit": "%", "bioavailability": 82}
{"Mol": "CC(C)(NCC1CC1)c1nc2c(C(N)=O)cccc2[nH]1", "Readout unit": "%", "bioavailability": 100}
{"Mol": "CC(C)(c1nc2c(C(N)=O)cccc2[nH]1)N1CCCC1", "Readout unit": "%", "bioavailability": 52}

Let us move to another entry and its bioavailability.
The compound CNC(C)(C)c1nc2cccc(C(N)=O)c2[nH]1 showed bioavailability equal to 85

---

molecular target: Poly [ADP-ribose] polymerase 1 (Homo sapiens, UniProt P09874); assay: Inhibition of PARP1 in cell based assay
Sequence (P09874 whole entry): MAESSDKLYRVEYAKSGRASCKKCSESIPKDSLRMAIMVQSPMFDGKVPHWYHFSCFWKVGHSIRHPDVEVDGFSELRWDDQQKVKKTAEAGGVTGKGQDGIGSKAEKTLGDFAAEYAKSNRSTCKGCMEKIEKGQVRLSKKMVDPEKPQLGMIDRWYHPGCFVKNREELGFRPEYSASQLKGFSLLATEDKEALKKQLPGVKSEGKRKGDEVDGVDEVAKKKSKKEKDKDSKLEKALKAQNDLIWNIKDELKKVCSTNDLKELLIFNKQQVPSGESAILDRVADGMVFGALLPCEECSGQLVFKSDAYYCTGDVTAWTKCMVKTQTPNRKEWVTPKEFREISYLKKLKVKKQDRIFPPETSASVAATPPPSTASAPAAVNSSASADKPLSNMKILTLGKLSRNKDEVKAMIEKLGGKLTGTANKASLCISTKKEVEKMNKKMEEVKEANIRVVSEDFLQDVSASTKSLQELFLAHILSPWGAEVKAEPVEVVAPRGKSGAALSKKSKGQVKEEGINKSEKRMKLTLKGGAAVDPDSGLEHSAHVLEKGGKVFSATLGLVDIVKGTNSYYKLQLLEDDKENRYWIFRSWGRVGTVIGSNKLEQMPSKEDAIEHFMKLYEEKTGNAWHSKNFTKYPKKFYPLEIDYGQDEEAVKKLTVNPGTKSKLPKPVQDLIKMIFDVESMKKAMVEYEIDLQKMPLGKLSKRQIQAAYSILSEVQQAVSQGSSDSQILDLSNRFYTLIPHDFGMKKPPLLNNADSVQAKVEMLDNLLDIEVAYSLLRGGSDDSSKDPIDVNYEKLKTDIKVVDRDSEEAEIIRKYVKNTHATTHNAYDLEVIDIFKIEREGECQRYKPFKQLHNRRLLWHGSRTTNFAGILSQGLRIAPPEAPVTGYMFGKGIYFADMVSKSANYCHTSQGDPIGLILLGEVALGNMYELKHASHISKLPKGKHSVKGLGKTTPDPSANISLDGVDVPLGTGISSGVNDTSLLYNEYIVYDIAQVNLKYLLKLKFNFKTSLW
Assay endpoint: pEC50
// scale note: pEC50 = -log10(conc_M); give the bare number

Worked examples follow.
{"Mol": "CN(C)C(C)(C)c1nc2cccc(C(N)=O)c2[nH]1", "Target under test": "Poly [ADP-ribose] polymerase 1 (Homo sapiens, UniProt P09874)", "Test value": 8.74}
{"Mol": "CC(C)NC(C)(C)c1nc2c(C(N)=O)cccc2[nH]1", "Target under test": "Poly [ADP-ribose] polymerase 1 (Homo sapiens, UniProt P09874)", "Test value": 8.70}
{"Mol": "CCCNC(C)(C)c1nc2c(C(N)=O)cccc2[nH]1", "Target under test": "Poly [ADP-ribose] polymerase 1 (Homo sapiens, UniProt P09874)", "Test value": 8.52}
{"Mol": "CC(C)(c1nc2c(C(N)=O)cccc2[nH]1)N1CCCC1", "Target under test": "Poly [ADP-ribose] polymerase 1 (Homo sapiens, UniProt P09874)", "Test value": 9.05}
{"Mol": "CC(C)(NC1CCCC1)c1nc2c(C(N)=O)cccc2[nH]1", "Target under test": "Poly [ADP-ribose] polymerase 1 (Homo sapiens, UniProt P09874)", "Test value": 8.40}

CNC(C)(C)c1nc2cccc(C(N)=O)c2[nH]1 yielded pEC50 of 8.89

compound CC(C)(c1nc2cccc(C(N)=O)c2[nH]1)N1CCCCC1 , pEC50 observed: 8.51

The compound listed as CC(C)(NCCc1ccccc1)c1nc2c(C(N)=O)cccc2[nH]1 has a reported pEC50 of 8.05

Record CC(C)(NCC1CC1)c1nc2c(C(N)=O)cccc2[nH]1 , field pEC50: 8.70

---

assay: Half life in dog at 2.5 mg/kg, iv and 2.5 mg/kg, po; type: ADME, organism-based, Canis lupus familiaris; settings: in vivo
Assay endpoint: half-life (h)
Express your answer in h, writing the number without its unit.

Note to self: half-life recorded for CC(C)NC(C)(C)c1nc2c(C(N)=O)cccc2[nH]1 was 2.8

---

experiment: AUC in dog at 2.5 mg/kg, po; type: ADME, organism-based, Canis lupus familiaris; set-up: dose 2.5 mg/kg, route oral; details: plasma
Assay endpoint: AUC (µM·h)
Please state the figure in µM·h; there is no need to write the unit.

Briefly, AUC measured for CC(C)NC(C)(C)c1nc2c(C(N)=O)cccc2[nH]1 : 6.07

---

assay: Clearance in mouse at 5 mg/kg, iv and 10 mg/kg, po; type: ADME, organism-based; conditions: in vivo
Assay endpoint: clearance (mL/min/kg)
Dear colleague, please return just the value in mL/min/kg, with no unit written.

{"Mol": "CNC(C)(C)c1nc2cccc(C(N)=O)c2[nH]1", "Readout unit": "mL/min/kg", "Test value": 70}

clearance in this record for CC(C)NC(C)(C)c1nc2c(C(N)=O)cccc2[nH]1 : 66.7

Measured clearance, CC(C)(c1nc2c(C(N)=O)cccc2[nH]1)N1CCCC1 : 50

Given item CC(C)(NCC1CC1)c1nc2c(C(N)=O)cccc2[nH]1 , the value recorded as its clearance is 192

---

biological target: Poly [ADP-ribose] polymerase 1 (Homo sapiens, UniProt P09874)
Assay endpoint: pKi
Friendly reminder that pKi comes from taking -log10 of the concentration in mol/L.

Worked cases, pKi given:
{"Molecule": "CC(CCN)c1nc2c(C(N)=O)cccc2[nH]1 (configuration not stated)", "pKi": 7.49}
{"Molecule": "NC(=O)c1cccc2[nH]c(C3(N)CCCCC3)nc12", "pKi": 7.30}
{"Molecule": "CN(CC1CCOC1)C(C)(C)c1nc2cccc(C(N)=O)c2[nH]1 (configuration not stated)", "pKi": 7.77}
{"Molecule": "CC(NC1CCCCC1)c1nc2c(C(N)=O)cccc2[nH]1 (configuration not stated)", "pKi": 7.28}
{"Molecule": "CC(C)(NC1CCCC1)c1nc2c(C(N)=O)cccc2[nH]1", "pKi": 8.05}

Measured pKi of NC(=O)c1cccc2[nH]c(C3(N)CC3)nc12 : 7.60

Lookup result for NC(=O)c1cccc2[nH]c(C3(N)Cc4ccccc4C3)nc12 ; measured pKi: 7.24

# molecule CC(C)(NCCc1ccccc1)c1nc2c(C(N)=O)cccc2[nH]1 ; its pKi = 7.43

pKi reading for CN(C1CCC1)C(C)(C)c1nc2c(C(N)=O)cccc2[nH]1 : 7.72

The molecule CC(C)(c1nc2cccc(C(N)=O)c2[nH]1)N1CCCCC1 showed pKi equal to 7.82

Lookup result for CC(C)(N)c1nc2c(C(N)=O)cccc2[nH]1 ; measured pKi: 7.72

Noted for CC(C)(NCC1CC1)c1nc2c(C(N)=O)cccc2[nH]1 : its pKi reads 8.15

Reference source for all entries: ChEMBL document CHEMBL1155103
